Reference source for all entries: patent US6352958B1

Test system: blackgrass (Aloepecurus myosuroides)
experiment.description: Preemergence herbicidal activity, blackgrass
Type: in vivo
test.parameters: Rate of Application 0.3 Kg/Ha, examined after 12-17 days
Label T when PREEMERGENCE HERBICIDAL ACTIVITY (% CONTROL) ALOMY is strictly below 80%; at or above that, label F.

Answered cases to consult:
Cc1nc2c(-n3c(=O)cc(C(F)(F)F)n(C)c3=O)c(F)cc(Cl)c2o1 [Compound 1]; F
Cn1c(C(F)(F)F)cc(=O)n(-c2c(F)cc(Br)c3oc(N)nc23)c1=O [Compound 98]; T
CCOC(OCC)c1cc2c(Cl)cc(F)c(-n3c(=O)cc(C(F)(F)F)n(C)c3=O)c2o1 [Compound 245]; T

Query block: PREEMERGENCE HERBICIDAL ACTIVITY (% CONTROL) ALOMY strictly < 80% for this molecule? Cn1c(C(F)(F)F)cc(=O)n(-c2c(F)cc(Cl)c3cc(C(C)(C)N)oc23)c1=O [Compound 254]
Result block: T
